- System: UACC-257
- PROCEDURE_SUMMARY: NCI tumour cell line growth inhibition, 48 h
Activity calls are given as the source filed them. Rule as the data show it: active = GI50 up to about 1.1 µM and inactive = higher.
Log the outcome using a class from active, inactive

Before answering, review these 5 worked examples.
CCCCCC#CCOC(=O)C(=[N+]=[N-])P(=O)(c1ccccc1)c1ccccc1; inactive
c1cc2c(cc1[C@@H]1OC[C@@H]3[C@H]1CO[C@H]3c1ccc3c(c1)OCO3)OCO2; inactive
CCCCOP1(=O)C=CC(Cl)=C(C)C1 (stereo not given); inactive
CSc1c2c(C)n[nH]c2nn1-c1ccccc1; inactive
COc1cc(/C=C2\C(=O)N(Cc3ccccc3)C(c3ccccc3)S2(=O)=O)cc(OC)c1OC (stereo not given); inactive

Ask: Given Cc1nn(C)c2nc3ccc(Cl)cc3c(-c3ccccc3)c12 , state the outcome it received in this test.
Result: inactive

Ask: Given CCOC(=O)c1ccc(N[C@@H]2c3cc4c(cc3C(c3cc(OC)c(O)c(OC)c3)[C@H]3C(=O)OCC32)OCO4)cc1 (stereo not given in full) , state the outcome it received in this test.
Result: inactive

Ask: Given CN(C)CCCNC(=O)c1cc2/c(=C\c3ccc(N(C)C)cc3)c3ccccc3n2[n+]1C , state the outcome it received in this test.
Result: inactive

Ask: Given N#C/C(=C/c1ccc([N+](=O)[O-])o1)c1ccccc1 , state the outcome it received in this test.
Result: inactive

Ask: Given O=[N+]([O-])/C(Cl)=C/C(=C1/Nc2ccccc2O1)[N+](=O)[O-] , state the outcome it received in this test.
Result: inactive

Ask: Given CCOn1c(C2(CC3CCN(C(=O)c4ccccc4)CC3)OCCO2)cc2ccccc21 , state the outcome it received in this test.
Result: inactive
